Test system: T. mentagrophytes
Assay: Antifungal activity, MIC by disc (diffusion) method
Type: cell-based
Conditions: Trichophyton mentagrophytes, YMG agar, 24 hr at 28° C., read-out: MIC (minimum inhibitory concentration) T. mentagrophytes
Listing of entries alongside the reported MIC.
Measured metric: MIC (µg/mL)

1) CCCCCCCCN1CC(c2ccccc2)=NS1(=O)=O    2
2) CC1=NS(=O)(=O)OC(C)=C1C    2
3) COC(=O)c1ccc2c(c1)C1ON1S(=O)(=O)O2 (centres unmarked)    1
4) COc1ccc2c(c1)C1ON1S(=O)(=O)O2 (centres unmarked)    2
5) O=S1(=O)N=C(CCc2ccc(Cl)cc2)C2ON21 (centres unmarked)    2
6) COC(=O)c1ccc2c(c1)C=NS(=O)(=O)O2    1
7) O=S1(=O)OCC2(c3ccccc3)ON21 (centres unmarked)    2
8) CC1=CC2(C)ON2S(=O)(=O)N1 (centres unmarked)    2
9) CC1=NS(=O)(=O)N2OC12 (centres unmarked)    2
10) O=S1(=O)N=Cc2cccn21    4
11) CC1=C(C)C2(C)ON2S(=O)(=O)O1 (centres unmarked)    2
12) O=S1(=O)N=C2C(=COc3ccc(F)cc32)C2ON21 (centres unmarked)    1
13) O=S1(=O)N2OC2c2nccn21 (centres unmarked)    2
14) CC1=C(C)C(c2ccccc2)=NS(=O)(=O)N1    2
15) CC1=NS(=O)(=O)N=C1    2
16) CC1OS(=O)(=O)N2OC12C (centres unmarked)    2
17) O=S1(=O)N=CC(CCc2ccc(F)cc2)=N1    2
18) O=[N+]([O-])c1cc(Cl)cc2c1OS(=O)(=O)N1OC21 (centres unmarked)    1
19) O=S1(=O)OCC2(c3ccc(Cl)cc3)ON21 (centres unmarked)    2
20) N#Cc1ccc2c(c1)C1ON1S(=O)(=O)O2 (centres unmarked)    1
21) O=S1(=O)Oc2ccc(Br)cc2C2ON21 (centres unmarked)    1
22) O=S1(=O)N=Cc2cc(Cl)cc(Cl)c2O1    1
23) O=S1(=O)N=C(c2ccccc2)CO1    2
